# System: MILI (PIWIL2) piRISC loaded with L1MC piRNA (26 nt);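 further: 1 nM active piRISC with 0.1 nM target library at 33 °C single turnover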
# method-description: pre-steady-state target cleavage rate (min^-1); guide: L1MC piRNA 5'p-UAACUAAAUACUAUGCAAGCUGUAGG; higher = faster piRNA-guided slicing of the target
# test-context: auxiliary factor: 500 nM mouse GTSF1
Below, each entry is listed with its recorded pre-steady-state target cleavage rate.
Answer with the value's number alone.

Illustrative cases are given below, each with its answer.
> print(dat)
                        seq.string                                readout  measurement
1   UCCUGGAUGUGCUUGCAUAGUAUUAAGAUA  pre-steady-state target cleavage rate      0.00523
2   UCCUCCUACAGCUUGCUAAGUAUUUUCAAA  pre-steady-state target cleavage rate       0.0625
3  UCCUGGAUGUCGUUAGCAUAGUAUUUAGUUA  pre-steady-state target cleavage rate       0.0539
4   UCCUGGAUGUCGAAGCAUAGUAUUUUGUUA  pre-steady-state target cleavage rate       0.0221
5   UCCUCCUACAGCAUGCAUAGUAUUUAGUUA  pre-steady-state target cleavage rate        0.316

Entry UCCUCCUACAGCUUGCAUAGUAUUAUGUUA has what pre-steady-state target cleavage rate? 0.15

One more sequence: UCCUGGAUGUCGUUGCUUAGUAUUUAGUUA 0.0857

One more sequence: UCCUGGUGCAGCUUGCAUAGUAUUUAGUUA 0.287

====

# Test system: MILI (PIWIL2) piRISC loaded with L1MC piRNA (26 nt);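 further: 1 nM active piRISC with 0.1 nM target library at 33 °C single turnover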
# method-description: pre-steady-state target cleavage rate (min^-1); guide: L1MC piRNA 5'p-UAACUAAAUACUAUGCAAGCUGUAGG; higher = faster piRNA-guided slicing of the target
# test-context: auxiliary factor: 500 nM mouse GTSF1
readout: pre-steady-state target cleavage rate

Entry UCCUCCUACAGCUUGCAUAGUUAAUAGUAA has what pre-steady-state target cleavage rate? 0.0122

One more sequence: UCCUGGAUGAGCUUGCAUAGUUUAUAGUUA 0.0127

One more sequence: UCCUGGAUGUCCUUGUAUAGUAUUUAGUUA 0.119

One more sequence: UCCUGGUACAGCAAGCAUAGUAUUUAGUAA 0.239

One more sequence: UCCUGGAACAGCUUGCAUAGUAUAAAGAAA 0.0192

One more sequence: UCCUGGAUGUGCUUGCAUAGUAAUUUGUUA 0.0141

One more sequence: UCCUCCUACAUCUUGCAUAGUAUUUAGUUA 0.277

====

# System: MILI (PIWIL2) piRISC loaded with L1MC piRNA (26 nt);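 further: 1 nM active piRISC with 0.1 nM target library at 33 °C single turnover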
# method-description: pre-steady-state target cleavage rate (min^-1); guide: L1MC piRNA 5'p-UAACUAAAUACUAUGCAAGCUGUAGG; higher = faster piRNA-guided slicing of the target
# test-context: auxiliary factor: none (no GTSF1)
Classification field: enter True for pre-steady-state target cleavage rate values not below 0.006, False for values below it.

> print(dat)
                        seq.string                                       tgt  class.label
1   UCCUGCUACAGCUUGCAUAGUACUUAGUUA  MILI (PIWIL2) piRISC loaded with L1MC piRNA (26 nt)         True
2  UCCUGGUACAGCUUGCAUAGUAUUUAGUCUA  MILI (PIWIL2) piRISC loaded with L1MC piRNA (26 nt)         True
3   UCCUCCUAGAGCUUGCAUUGUAUUUAGUUA  MILI (PIWIL2) piRISC loaded with L1MC piRNA (26 nt)         True
4   UCCUGCUACCGCUUGCAUAGUAUUUAGUUA  MILI (PIWIL2) piRISC loaded with L1MC piRNA (26 nt)         True
5   UCCUGGAUGUCCUUGCAUAGUAUUAAGUUA  MILI (PIWIL2) piRISC loaded with L1MC piRNA (26 nt)        False
6   UCCUGGAUGUCGAACGUUACUUUUUAGUUA  MILI (PIWIL2) piRISC loaded with L1MC piRNA (26 nt)        False

Shifting focus to the sequence that follows.
hey, is pre-steady-state target cleavage rate for this one >= 0.006? UCCUGGAUGUGCUUGCAUAGUAUUUAGUAA True

====

# System: MILI (PIWIL2) piRISC loaded with piRNA #1 (26 nt);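 further: 1 nM active piRISC with 0.1 nM target library at 33 °C single turnover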
# method-description: pre-steady-state target cleavage rate (min^-1); guide: piRNA #1 5'p-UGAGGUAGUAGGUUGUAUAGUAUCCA; higher = faster piRNA-guided slicing of the target
# test-context: auxiliary factor: 500 nM mouse GTSF1
readout: pre-steady-state target cleavage rate

Lookup: pre-steady-state target cleavage rate / MILI (PIWIL2) piRISC loaded with piRNA #1 (26 nt) / GGAGACCUAACUAUACAACCUACUAGCCUCA 0.186

One more sequence: GGAGACCUAUGAAUACAACCUACUACCUCC [g2:g18:cont:t1C] 0.0111

One more sequence: GGAGAGGAAACUAUACAACCUACUAGCUCA 0.0535

One more sequence: GGAGACCUAACAAUUCAACCUACUACCUCA 0.0406

====

# System: MILI (PIWIL2) piRISC loaded with L1MC piRNA (26 nt);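 further: 1 nM active piRISC with 0.1 nM target library at 33 °C single turnover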
# method-description: pre-steady-state target cleavage rate (min^-1); guide: L1MC piRNA 5'p-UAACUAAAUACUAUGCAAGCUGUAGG; higher = faster piRNA-guided slicing of the target
# test-context: auxiliary factor: 500 nM mouse GTSF1
Classification field: enter satisfied for pre-steady-state target cleavage rate values not below 0.2, not satisfied for values below it.

> print(dat)
                        seq.string    class.label
1  UCCUCCUACAGCUUGCCAUAGUAUUUAGUUA  not satisfied

hey, is pre-steady-state target cleavage rate for this one >= 0.2? UCCUGGAUCAGCAAGCAUAGUAUUUACAAA not satisfied

One more sequence: UCCUCCUAUAGCUUGCAUAGUAUUUAGUUA satisfied

One more sequence: UCCUGGUACUGCUUGCAUAGUAUUUUGUUA not satisfied

One more sequence: UCCUGGAUCAGCUUGCACAGUAUUUAGUUA not satisfied

One more sequence: UCCUGGAACAGCUUGCAUAGAAUUUAGUAA not satisfied

One more sequence: UCCUGGAAGAGCUUGCAUAGUAUUUACUUA not satisfied

One more sequence: UCCUGCUACAGCUUGCAUAGUAUGUUAGUUA not satisfied

One more sequence: UCCUGGAUGAGCUUGCAUAGUAUUUUCAUA not satisfied

One more sequence: UCCUGGAUGUGCUUGCAUAGUAUAAUGUUA not satisfied

One more sequence: UCCUGGAUGUGCGUGCAUAGUAUUUAGUUA not satisfied

One more sequence: UCCUCCUACAGCUUGCAUAGUAUUAUCAAA not satisfied

One more sequence: UCCUGCUACAGGUUGCAUAGUAUUUAGUUA satisfied

One more sequence: UCCUCCUACAGCUUGCAUAGUAUUUACGUUA satisfied

One more sequence: UCCUGGAACAGCUUGCAUAGUAAAAAGUAA not satisfied

One more sequence: UCCUGGUACAGCUUGCAUAGUAAUUACUUA not satisfied

One more sequence: UCCUGGAACAGCUUGCAUAGUAUUUUGUUA not satisfied

====

# System: EfPiwi piRISC loaded with piRNA #1 (26 nt)
# method-description: pre-steady-state target cleavage rate (min^-1); auxiliary factor: 500 nM Ephydatia muelleri Gtsf1; guide: piRNA #1 5'p-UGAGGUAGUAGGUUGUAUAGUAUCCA; MIWI and MILI are mouse PIWI proteins and EfPiwi is from a freshwater sponge; tags in brackets are library labels; higher = faster piRNA-guided slicing of the target
readout: pre-steady-state target cleavage rate
Answer with the value's number alone.

Illustrative cases are given below, each with its answer.
> print(dat)
                        seq.string  measurement
1   GGAGAGGAUACUAUACAACGUACUAGCUCA       0.0029
2  GGAGACCAUACGUAUACAACCUACUACCUCA        0.159
3   GGAGACGAUACUAUACAACCGACUACCUCA      0.00284
4   GGAGUGGAUACUAUACAUCCUACUUCCUCA      0.00326
5   GGAGACGAUAAUAUACAACCUACUACCUCA        0.072

Lookup: pre-steady-state target cleavage rate / EfPiwi piRISC loaded with piRNA #1 (26 nt) / GGAGAGGAUACUAUUACAACCUACUACCUCA 0.0933

One more sequence: GGAGAGGAUACUAUACAACCUACUACGCUCA 0.00523

One more sequence: GGAGACCUUACUAUACAACCUACUACCAUCA 0.00369

One more sequence: GGAGACCUUACUAGUACAACCUACUACCUCA 0.00695

One more sequence: GGAGUGGAUACUAUACAACGAACUACCUCA 0.00257

One more sequence: GGAGUGGAUGCUAUACAACCUACUACCUCA 0.0921

One more sequence: GGAGACGAUUACUAUACAACCUACUACCUCA 0.0159

One more sequence: GGAGACCAUACUAUACAACGUACUACCACA 0.00321
